Tested on: S. pneumoniae
MEASURED_ATTRIBUTE: MIC (µg/mL)

COMPOUND	QUANTITATIVE_READOUT
CC1=C\[C@@H](O)CC(=O)Cc2nc(co2)C(=O)N2CCC[C@@H]2C(=O)O[C@H]([C@@H](C)COC(=O)Nc2ccccn2)[C@H](C)/C=C/C(=O)NC\C=C\1	16
CC1=C\[C@@H](O)CC(=O)Cc2nc(co2)C(=O)N2CCC=C2C(=O)O[C@H](C(C)C)[C@H](C)/C=C/C(=O)NC\C=C\1 [virginiamycin M1, Virginiamycin M1, reference compound]	4
CC1=C\[C@@H](O)CC(=O)Cc2nc(co2)C(=O)N2CCC[C@@H]2C(=O)O[C@H]([C@H](C)COC(=O)Nc2ccc(C)cc2)[C@H](C)/C=C/C(=O)NC\C=C\1	32

###

Tested on: S. aureus
Experiment: MIC, Gram-positive bacteria: S. aureus (strains not named)
Type: cell-based
Settings: Staphylococcus aureus, second unnamed S. aureus column (c6), read-out: Minimal Inhibitory Concentration (MIC) S. aureus
MEASURED_ATTRIBUTE: MIC (µg/mL)

COMPOUND	MEASURED_ATTRIBUTE	CENSORING_SIGN	QUANTITATIVE_READOUT
CC1=C\[C@@H](O)CC(=O)Cc2nc(co2)C(=O)N2CCC[C@@H]2C(=O)O[C@H]([C@@H](C)COC(=O)Nc2ccccn2)[C@H](C)/C=C/C(=O)NC\C=C\1 [SA0110120]	MIC	=	64
CC1=C\[C@@H](O)CC(=O)Cc2nc(co2)C(=O)N2CCC[C@@H]2C(=O)O[C@H]([C@@H](C)COC(=O)Nc2ccn(C)n2)[C@H](C)/C=C/C(=O)NC\C=C\1 [SA0110113]	MIC	>	64
CC1=C\[C@@H](O)CC(=O)Cc2nc(co2)C(=O)N[C@H](Cc2ccc(O)cc2)C(=O)O[C@H](C(C)C)[C@H](C)/C=C/C(=O)NC\C=C\1 [SA0202097]	MIC	>	64
CC1=C\[C@@H](O)CC(=O)Cc2nc(c([Si](C)(C)C)o2)C(=O)N2CCC[C@@H]2C(=O)O[C@H](C(C)C)[C@H](C)/C=C/C(=O)NC\C=C\1 [SA0110261]	MIC	=	64
CC1=C\[C@@H](O)CC(=O)Cc2nc(co2)C(=O)N2CCC[C@@H]2C(=O)O[C@H]([C@@H](C)CN2CCC(N(C)C)CC2)[C@H](C)/C=C/C(=O)NC\C=C\1 [SA0110252]	MIC	>	64

###

Tested on: Gram-Negative Organisms
Assay: microbe, parasite or virus in culture
Assay type: cell-based
Details: Escherichia coli, read-out: Minimal Inhibitory Concentration (MIC), E. coli BAS2006, OMP C, OMP F

COMPOUND	MIC / µg/mL
CC1=C\[C@@H](O)CC(=O)Cc2nc(co2)C(=O)N2CCC[C@@H]2C(=O)O[C@H]([C@@H](C)CO)[C@H](C)/C=C/C(=O)NC\C=C\1 [SA0110026]	64
CC1=C\[C@@H](O)CC(=O)Cc2nc(co2)C(=O)N2CCC[C@@H]2C(=O)O[C@H]([C@H](C)COC(=O)Nc2ccc3ccccc3n2)[C@H](C)/C=C/C(=O)NC\C=C\1 [SA0110223]	16
CC1=C\[C@@H](O)CC(=O)Cc2nc(co2)C(=O)N2CCC[C@@H]2C(=O)O[C@H]([C@@H](C)COC(=O)Nc2coc(C)n2)[C@H](C)/C=C/C(=O)NC\C=C\1 [SA0110095]	32
CC1=C\[C@@H](O)CC(=O)Cc2nc(co2)C(=O)N2CCC[C@@H]2C(=O)O[C@H]([C@H](C)COC(=O)Nc2csc(C)n2)[C@H](C)/C=C/C(=O)NC\C=C\1 [SA0110214]	64

###

Documented MIC across a set of molecules
Test system: Gram-Negative Organisms
Assay: microbe, parasite or virus in culture
Assay type: cell-based
Details: Escherichia coli, read-out: Minimal Inhibitory Concentration (MIC), E. coli BAS2006, OMP C, OMP F

MOLECULE	CENSORING_SIGN	MIC / µg/mL
CC1=C\[C@@H](O)CC(=O)Cc2nc(co2)C(=O)N2CCC[C@@H]2C(=O)O[C@H]([C@H](C)COC(=O)Nc2ccc(C)cc2)[C@H](C)/C=C/C(=O)NC\C=C\1 [SA0110184]	>	64
CC1=C\[C@@H](O)CC(=O)Cc2nc(co2)C(=O)N2CCC[C@@H]2C(=O)O[C@H]([C@H](C)COC(=O)Nc2cc3ccccc3cn2)[C@H](C)/C=C/C(=O)NC\C=C\1 [SA0110224]	=	8
CC1=C\[C@@H](O)CC(=O)Cc2nc(co2)C(=O)N2CCC[C@@H]2C(=O)O[C@H]([C@@H](C)COC(=O)Nc2cc3ccccc3cn2)[C@H](C)/C=C/C(=O)NC\C=C\1 [SA0110118]	=	8
CC1=C\[C@@H](O)CC(=O)Cc2nc(co2)C(=O)N2CCC[C@@H]2C(=O)O[C@H]([C@@H](C)COC(=O)Nc2cc(C)on2)[C@H](C)/C=C/C(=O)NC\C=C\1 [SA0110115]	=	64
CC1=C\[C@@H](O)CC(=O)Cc2nc(co2)C(=O)N2CCC[C@@H]2C(=O)O[C@H]([C@H](C)COC(=O)Nc2ccn(C)n2)[C@H](C)/C=C/C(=O)NC\C=C\1 [SA0110218]	>	64

###

Tested on: Gram-Negative Organisms
Assay: microbe, parasite or virus in culture
Assay type: cell-based
Details: Escherichia coli, read-out: Minimal Inhibitory Concentration (MIC), E. coli BAS2006, OMP C, OMP F

MOLECULE	CENSORING_SIGN	MIC [µg/mL]
CC1=C\[C@@H](O)CC(=O)Cc2nc(co2)C(=O)N2CCC[C@@H]2C(=O)O[C@H]([C@@H](C)CN2CCC(N(C)C)CC2)[C@H](C)/C=C/C(=O)NC\C=C\1 [SA0110252]	>	64
CC1=C\[C@@H](O)CC(=O)Cc2nc(co2)C(=O)N2CCC[C@@H]2C(=O)O[C@H]([C@H](C)CF)[C@H](C)/C=C/C(=O)NC\C=C\1 [SA0110273]	=	16
CC1=C\[C@@H](O)CC(=O)Cc2nc(co2)C(=O)N2CCC[C@@H]2C(=O)O[C@H]([C@@H](C)COC(=O)Nc2ccc3ccccc3n2)[C@H](C)/C=C/C(=O)NC\C=C\1 [SA0110117]	=	8

###

Test system: Gram-Negative Organisms
Assay: microbe, parasite or virus in culture
Type: cell-based
Conditions: Escherichia coli, read-out: Minimal Inhibitory Concentration (MIC), E. coli permeability mutant BAS1314; IMP4213ZAB::TN10
Just a reminder that ties go to label 0: only MIC strictly below 8 µg/mL counts as label 1.

COMPOUND	CLASS_LABEL
CC1=C\[C@@H](O)CC(N)Cc2nc(cs2)C(=O)N2CCC[C@@H]2C(=O)O[C@H](C(C)C)[C@H](C)/C=C/C(=O)NC\C=C\1 (some centres unmarked) [SA0110268]	label 1
CC1=C\[C@@H](O)C[C@@H](O)Cc2nc(cs2)C(=O)N2CCC[C@@H]2C(=O)O[C@H](C(C)C)[C@H](C)/C=C/C(=O)NC\C=C\1 [SA0110264]	label 1
CC1=C\[C@@H](O)CC(=O)Cc2nc(c([Si](C)(C)C)o2)C(=O)N2CCC[C@@H]2C(=O)O[C@H](C(C)C)[C@H](C)/C=C/C(=O)NC\C=C\1 [SA0110261]	label 0
CC1=C\[C@@H](O)CC(=O)Cc2nc(co2)C(=O)N2CCC[C@@H]2C(=O)O[C@H]([C@H](C)CO)[C@H](C)/C=C/C(=O)NC\C=C\1 [SA0110170]	label 0
CC1=C\[C@@H](O)CC(=O)Cc2nc(co2)C(=O)N2CCC[C@@H]2C(=O)O[C@H]([C@@H](C)COC(=O)Nc2ccn(C)n2)[C@H](C)/C=C/C(=O)NC\C=C\1 [SA0110113]	label 0
CC1=C\[C@@H](O)CC(=O)Cc2nc(co2)C(=O)N2CCC[C@@H]2C(=O)O[C@H]([C@H](C)COC(=O)Nc2ccc(Br)nc2)[C@H](C)/C=C/C(=O)NC\C=C\1 [SA0110209]	label 1
CC1=C\[C@@H](O)CC(=O)Cc2nc(co2)C(=O)N2CCC[C@@H]2C(=O)O[C@H]([C@H](C)COC(=O)Nc2cc3ccccc3cn2)[C@H](C)/C=C/C(=O)NC\C=C\1 [SA0110224]	label 1
CC1=C\[C@@H](O)C[C@@H](O)Cc2nc(co2)C(=O)N[C@H](C)C(=O)O[C@H](C(C)C)[C@H](C)/C=C/C(=O)NC\C=C\1 [madumycin II, Madumycin II, reference compound]	label 1
CC1=C\[C@@H](O)CC(=O)Cc2nc(co2)C(=O)N2CCC[C@@H]2C(=O)O[C@H]([C@@H](C)COC(=O)Nc2cnccn2)[C@H](C)/C=C/C(=O)NC\C=C\1 [SA0110101]	label 0
